These data points were gathered from ChEMBL document CHEMBL1201862.

- Tested on: SK-MEL-2
- Assay Summary: NCI tumour cell line growth inhibition, 48 h
The source made the active and inactive calls. Rule as the data show it: active = GI50 up to about 1.1 µM and inactive = higher.
Assay Endpoint: GI50

Please review the following examples before continuing.
INSERT INTO measurements (compound, assay_endpoint, data_value) VALUES
  ('O=C(CC(=O)C(=O)CC(=O)OCc1ccccc1)OCc1ccccc1', 'GI50', '> 100 µM (inactive)'),
  ('COC(=O)C(CCSC)NC(=O)CSc1nnc(COc2ccc(Cl)cc2)n1-c1ccccc1 (centres undefined)', 'GI50', '16 µM (inactive)'),
  ('CC(=O)Nc1ccc2c3c(cc(O)c2c1)N(C(=O)CCCCCC(=O)Nc1ccc2c4c(cc(O)c2c1)N(C(=O)OC(C)(C)C)CC4CCl)CC3CCl (centres undefined)', 'GI50', '1.76 µM (inactive)');

Consider the additional compound presented here.
Field GI50 (entry O=C(Nc1nc2ncn(CC(COc3ccccc3)OC(=O)c3ccccc3)c2c(=O)[nH]1)c1ccccc1 (centres undefined) ) reads > 100 µM (inactive)
